Molecular target: 4,4'-diapophytoene desaturase (4,4'-diaponeurosporene-forming) (Staphylococcus aureus (strain Newman), UniProt O07855)
Sequence (O07855 whole entry): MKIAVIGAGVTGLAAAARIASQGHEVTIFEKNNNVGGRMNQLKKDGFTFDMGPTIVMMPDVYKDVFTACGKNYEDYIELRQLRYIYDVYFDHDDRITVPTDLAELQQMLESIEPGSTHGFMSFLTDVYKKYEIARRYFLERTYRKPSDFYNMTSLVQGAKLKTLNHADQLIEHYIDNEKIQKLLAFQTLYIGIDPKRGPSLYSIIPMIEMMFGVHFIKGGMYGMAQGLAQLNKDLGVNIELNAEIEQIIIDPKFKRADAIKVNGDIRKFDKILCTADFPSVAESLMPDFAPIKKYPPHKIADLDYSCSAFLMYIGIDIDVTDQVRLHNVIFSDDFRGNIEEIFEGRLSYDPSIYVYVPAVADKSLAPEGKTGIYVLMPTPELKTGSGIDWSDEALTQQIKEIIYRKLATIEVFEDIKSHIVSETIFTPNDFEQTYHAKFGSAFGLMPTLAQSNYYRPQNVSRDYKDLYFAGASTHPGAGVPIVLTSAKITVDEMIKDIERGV
Experiment: Inhibition of diapophytoene desaturase in Staphylococcus aureus Newman assessed as reduction in staphyloxanthin pigment formation after 48 hrs by spectrophotometry
Set-up: species or system Staphylococcus aureus subsp. aureus str. Newman
Experimental readout: IC50 (µM)
Hi! Could you send only the number? It should be in µM, unit omitted.

// below: answered molecules
CN(C/C=C/c1ccc(Cl)cc1)Cc1ccc2c(c1)CCCCC2: 0.0088
CN(C/C=C/c1ccc(C(F)(F)F)cc1)Cc1ccc2c(c1)CCCC2.Cl: 0.0019
CN(C/C=C/c1ccccc1)Cc1ccc2c(c1)CCCCC2: 0.202
CN(C/C=C/c1ccccc1F)Cc1ccc2c(c1)CCCCC2: 0.246
CN(C/C=C/c1ccc(Br)cc1)Cc1ccc2c(c1)CCCC2.Cl: 0.0013

IC50 reported for this molecule CN(C/C=C/C=C/c1ccccc1)Cc1ccc2c(c1)CCCCC2 : 0.0122

Documented IC50 of CN(C/C=C/c1ccc([N+](=O)[O-])cc1)Cc1ccc2c(c1)CCCCC2 : 0.0124

# IC50 of CN(C/C=C/c1ccc([N+](=O)[O-])cc1)Cc1ccc2c(c1)CCCC2 = 0.0945

IC50 measured on CN(C/C=C/c1ccccc1)Cc1ccc2c(c1)CCCC2 = 0.603

molecule CN(C/C=C/c1ccccc1)Cc1ccc2c(c1)CCC2 , IC50 observed: 0.808

GET /value?item= CN(C/C=C/c1ccc(F)cc1)Cc1ccc2c(c1)CCCCC2 &field=IC50 returns 0.0394

Reported IC50 for Cc1cccc(/C=C/CN(C)Cc2ccc3c(c2)CCCCC3)c1 was 0.77

###

Recorded solubility at 24 h values for a group of compounds are listed next.
Experiment: Aqueous solubility of the compound in water after 24 hrs by HPLC method
Format: physicochemical
Express it in µg/mL; write the number only.

CN(C/C=C/c1ccc(C(F)(F)F)cc1)Cc1ccc2c(c1)CCCC2.Cl: 690
CN(C/C=C/c1ccc(Br)cc1)Cc1ccc2c(c1)CCCC2.Cl: 2100
COc1ccc(/C=C/CN(C)Cc2ccc3c(c2)CCCCC3)cc1.Cl: 4240

What the record says about CN(C/C=C/c1ccc(Br)cc1)Cc1ccc2c(c1)CCCCC2.Cl : solubility at 24 h is 570

###

Biological target: 4,4'-diapophytoene desaturase (4,4'-diaponeurosporene-forming) (Staphylococcus aureus (strain Newman))
Assay: Inhibition of 6x-His-tagged Staphylococcus aureus diapophytoene desaturase expressed in Escherichia coli BL21 (DE3) using diapophytoene substrate after overnight incubation
IC50: recorded values
The answer is to be given in nM; state only the numeric part.

Reference set, count: 2
CN(C/C=C/c1ccc(Br)cc1)Cc1ccc2c(c1)CCCC2.Cl: 450
CN(C/C=C/c1ccc(Br)cc1)Cc1ccc2c(c1)CCCCC2.Cl: 410

Read the next record carefully.
The recorded IC50 for CN(C/C=C/c1ccc(C(F)(F)F)cc1)Cc1ccc2c(c1)CCCC2.Cl is 500

###

Target: 4,4'-diapophytoene desaturase (4,4'-diaponeurosporene-forming) (Staphylococcus aureus (strain Newman))
Sequence (O07855 whole entry): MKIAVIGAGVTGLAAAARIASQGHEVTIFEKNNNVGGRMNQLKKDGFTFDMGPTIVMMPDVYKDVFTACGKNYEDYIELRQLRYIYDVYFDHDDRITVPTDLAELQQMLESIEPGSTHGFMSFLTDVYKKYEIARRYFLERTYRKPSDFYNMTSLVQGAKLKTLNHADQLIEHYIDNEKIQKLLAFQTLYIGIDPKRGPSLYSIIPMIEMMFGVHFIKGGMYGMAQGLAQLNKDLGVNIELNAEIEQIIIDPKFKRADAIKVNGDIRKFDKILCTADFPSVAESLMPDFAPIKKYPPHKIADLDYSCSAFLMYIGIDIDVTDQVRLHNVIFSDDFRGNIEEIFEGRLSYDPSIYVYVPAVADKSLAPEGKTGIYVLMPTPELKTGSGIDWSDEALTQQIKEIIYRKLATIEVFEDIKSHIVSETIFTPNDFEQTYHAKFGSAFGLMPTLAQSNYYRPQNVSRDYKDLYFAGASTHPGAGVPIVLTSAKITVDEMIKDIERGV
Experiment: Inhibition of diapophytoene desaturase in Staphylococcus aureus Newman assessed as reduction in staphyloxanthin pigment formation after 48 hrs by spectrophotometry
Set-up: species or system Staphylococcus aureus subsp. aureus str. Newman
In this section, each of the compounds is paired with its reported IC50.

Input C/C=C/CN(C)Cc1ccc2c(c1)CCCCC2 . Output IC50: > 50000 nM

CN(CC#Cc1ccccc1)Cc1ccc2c(c1)CCCCC2 has a reported IC50 of > 1250 nM

Kindly note the recorded IC50 for C(/C=C/c1ccccc1)=C\COCc1ccc2c(c1)CCCCC2 , which is > 20000 nM

Lab note: measured IC50 of CN(CCCc1ccccc1)Cc1ccc2c(c1)CCCCC2 was > 10000 nM

Recorded result, CN(C/C=C/c1ccco1)Cc1ccc2c(c1)CCCCC2 , IC50: > 2500 nM

// sample CN(C/C=C/c1ccccc1[N+](=O)[O-])Cc1ccc2c(c1)CCCCC2 , its IC50 was > 5000 nM

The compound listed as CN(C/C=C/c1cccc([N+](=O)[O-])c1)Cc1ccc2c(c1)CCCCC2 shows IC50 equal to > 1000 nM

Form field IC50, entry CN(C/C=C/c1ccccc1)Cc1cccc2c1CCCC2 : > 1000 nM

IC50 reading for c1ccc(CCCOCc2ccc3c(c2)CCCCC3)cc1 : > 20000 nM

The value of IC50 measured for the compound CCN(C/C=C/c1ccccc1)Cc1ccc2c(c1)CCCCC2 turned out to be > 1250 nM

# IC50 of CN(C/C=C/c1ccccc1)Cc1cccc2c1CCC2 = > 2500 nM

response.value for C/C(=C\c1ccccc1)CN(C)Cc1ccc2c(c1)CCCCC2 (field: IC50) = > 10000 nM

GET /value?item= CN(C/C=C/c1ccc(Cl)cc1)Cc1ccc2c(c1)CCCC2 &field=IC50 returns 12.8 nM

Value of IC50 reported for the compound CN(C/C=C/C1CCCCC1)Cc1ccc2c(c1)CCCCC2 is > 10000 nM

Form: compound = COc1ccc(/C=C/CN(C)Cc2ccc3c(c2)CCCC3)cc1 ; IC50 = 12.2 nM

IC50 reading for C(=C\c1ccccc1)/CNCc1ccc2c(c1)CCCCC2 : > 10000 nM

Entry CN(C/C=C/c1ccccc1)Cc1cccc2c1CCCCC2 — recorded IC50 = > 10000 nM

Lab note: measured IC50 of CN(C/C=C/Cc1ccccc1)Cc1ccc2c(c1)CCCCC2 was > 10000 nM

Looking up C(=C\c1ccccc1)/COCc1ccc2c(c1)CCCCC2 , I found its IC50 recorded as > 20000 nM

Consider Cc1ccc(/C=C/CN(C)Cc2ccc3c(c2)CCCCC3)cc1 . Its measured IC50 is 31 nM

###

Molecular target: 4,4'-diapophytoene desaturase (4,4'-diaponeurosporene-forming) (Staphylococcus aureus (strain Newman), UniProt O07855)
Test: Inhibition of diapophytoene desaturase in Staphylococcus aureus Newman assessed as reduction in staphyloxanthin pigment formation after 48 hrs by spectrophotometry
Set-up: species or system Staphylococcus aureus subsp. aureus str. Newman
Recorded pIC50, one value per entry.
Note: pIC50 values are expressed as the negative base-10 logarithm of concentration in M.

CN(C/C=C/c1ccc(Br)cc1)Cc1ccc2c(c1)CCCCC2.Cl: 8.11

Data point: CN(C/C=C/c1ccc(C(F)(F)F)cc1)Cc1ccc2c(c1)CCCCC2 ; pIC50 = 8.00
